FYI, the data here is from patent US8173841B2.

Let's look at some compounds and their measured melting point.

Example cases with answers are listed next.
COc1ccc(-c2ccc(CNC(=O)Nc3cccc4c3CC(O)CC4)cc2)cc1 (centres unmarked)	215 to 216 °C
O=C(NCc1cccc(-c2ccc(F)c(Cl)c2)c1)Nc1cccc2c1CC(O)CC2 (centres unmarked)	188 to 189 °C
COc1ccccc1-c1cccc(CNC(=O)Nc2cccc3c2CC(O)CC3)c1 (centres unmarked)	129 to 130 °C

Problem: Quick one: melting point of O=C(NCc1ccc(-c2ccc(Cl)cc2Cl)cc1)Nc1cccc2c1CC(O)CC2 (centres unmarked) ?
Result: 177 to 178 °C

Problem: Which melting point value is on record for O=C(NCc1ccc(-c2cc(Cl)cc(Cl)c2)cc1)Nc1cccc2c1CC(O)CC2 (centres unmarked) ?
Result: 204 to 205 °C

Problem: Suppose we examine the compound COc1ccc(-c2cccc(C(=O)Nc3cccc4c3CC(O)CC4)c2)cc1 (centres unmarked) ; what melting point value has been reported?
Result: 193.3 to 196.5 °C

Problem: Consider the compound shown here: O=C(NCc1ccc(-c2cccc(C(F)(F)F)c2)cc1)Nc1cccc2c1CC(O)CC2 (centres unmarked) What is its recorded melting point?
Result: 196 to 197 °C
